# SUBJECT_OF_TEST: folate receptor alpha (FRα) on cells (human, UniProt P15328 25-234)
# Sequence (P15328 25-234): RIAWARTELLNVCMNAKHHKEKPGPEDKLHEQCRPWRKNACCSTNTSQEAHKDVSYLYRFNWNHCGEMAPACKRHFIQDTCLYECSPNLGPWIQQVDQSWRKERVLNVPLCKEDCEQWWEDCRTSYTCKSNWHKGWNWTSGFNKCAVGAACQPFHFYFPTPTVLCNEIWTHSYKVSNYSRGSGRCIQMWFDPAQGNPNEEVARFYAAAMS
# ASSAY_SUMMARY: cell-based or functional assay
Provide the recorded IC50, in vitro cytotoxicity (WST-8, 5 days), SKOV-6 cells, +Block for the entries that follow.

Below, each entry is followed by its recorded IC50, in vitro cytotoxicity (WST-8, 5 days), SKOV-6 cells, +Block result.
M9346A-sGMBS-LDL-DM (conjugate 17c) (antibody, human IgG1, kappa, V domains shown, maytansinoid LDL-DM (compound 14c, L-Ala-D-Ala-L-Ala) linked through sulfo-GMBS to antibody amines, 3.7 mol LDL-DM/mol antibody) VH: QVQLVQSGAEVVKPGASVKISCKASGYTFTGYFMNWVKQSPGQSLEWIGRIHPYDGDTFYNQKFQGKATLTVDKSSNTAHMELLSLTSEDFAVYYCTRYDGSRAMDYWGQGTTVTVSS VL: DIVLTQSPLSLAVSLGQPAIISCKASQSVSFAGTSLMHWYHQKPGQQPRLLIYRASNLEAGVPDRFSGSGSKTDFTLTISPVEAEDAATYYCQQSREYPYTFGGGTKLEIKR | > 50 nM
Mov19v1.6-GMBS-dAlalAla-PAB-DM1 (conjugate 4b) (antibody, human IgG1, kappa, V domains shown, D-Ala-L-Ala-PAB-DM1 linked through GMBS, about 3.5 DM/Ab) VH: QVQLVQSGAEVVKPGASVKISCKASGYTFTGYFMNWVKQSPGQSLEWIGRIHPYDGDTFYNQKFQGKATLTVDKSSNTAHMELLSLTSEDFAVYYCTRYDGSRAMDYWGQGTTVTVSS VL: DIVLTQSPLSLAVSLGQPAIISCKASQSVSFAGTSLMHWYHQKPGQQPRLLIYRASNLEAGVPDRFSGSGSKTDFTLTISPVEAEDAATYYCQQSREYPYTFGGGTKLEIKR | 10 nM
conjugate 17g (antibody, human IgG1, kappa, V domains shown, thio-peptide-maytansinoid 14g linked through sulfo-GMBS to antibody amines (Example 4)) VH: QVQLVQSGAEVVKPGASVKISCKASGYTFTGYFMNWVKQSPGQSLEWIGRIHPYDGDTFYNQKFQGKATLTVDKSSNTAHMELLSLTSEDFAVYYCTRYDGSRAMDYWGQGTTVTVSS VL: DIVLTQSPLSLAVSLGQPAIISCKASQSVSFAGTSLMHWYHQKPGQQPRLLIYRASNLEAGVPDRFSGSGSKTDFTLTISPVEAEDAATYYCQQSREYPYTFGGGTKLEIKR | > 50 nM

Each of the following entries comes with a recorded value; kindly state IC50, in vitro cytotoxicity (WST-8, 5 days), SKOV-6 cells, +Block for each.
1. conjugate 17h (antibody, human IgG1, kappa, V domains shown, thio-peptide-maytansinoid 14h linked through sulfo-GMBS to antibody amines (Example 4)) VH: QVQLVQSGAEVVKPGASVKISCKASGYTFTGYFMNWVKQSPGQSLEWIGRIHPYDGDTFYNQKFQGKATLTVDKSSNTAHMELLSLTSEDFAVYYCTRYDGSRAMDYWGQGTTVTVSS VL: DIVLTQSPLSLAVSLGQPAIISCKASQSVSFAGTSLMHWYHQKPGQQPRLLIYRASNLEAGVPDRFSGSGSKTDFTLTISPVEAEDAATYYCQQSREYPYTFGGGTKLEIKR
2. conjugate 17i (antibody, human IgG1, kappa, V domains shown, thio-peptide-maytansinoid 14i linked through sulfo-GMBS to antibody amines (Example 4)) VH: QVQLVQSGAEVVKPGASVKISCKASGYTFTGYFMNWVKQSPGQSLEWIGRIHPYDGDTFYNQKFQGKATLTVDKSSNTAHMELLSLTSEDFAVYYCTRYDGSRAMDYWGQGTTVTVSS VL: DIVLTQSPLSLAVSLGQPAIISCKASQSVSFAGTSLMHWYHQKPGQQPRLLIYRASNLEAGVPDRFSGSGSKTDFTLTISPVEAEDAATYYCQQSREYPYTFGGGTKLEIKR

Response:
["> 50 nM", "> 50 nM"]

Numbers sourced from patent US20180296694A1.
